The origin of these recorded values is PubChem BioAssay.

Experiment: small-molecule binders of probe aNOTCH3, primary screen, biochemical, small-molecule microarray, 635/667 nm fluorescence (AID 1120);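 further: probe is a biotin-tagged antibody raised against NOTCH3 rather than NOTCH3 protein; score merges spot fluorescence near 667 nm with spot signal to noise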
Conditions: higher = more signal
Each entry gets f if its composite z-score stays under 0.01, and t if its composite z-score is 0.01 or above.

Examples with answers:
Request: Quick check: does CCOC(=O)[C@H](CC(C)C)NC(=O)CCC1CC(OC(=O)NCc2ccc3c(c2)OCO3)CC2(CCCC(COC(=O)NCCc3ccc(Cl)cc3)O2)O1 (stereo partly specified) have composite z-score greater than or equal to 0.01?
Result: t

Request: Quick check: does CCOC(=O)[C@H](Cc1ccccc1)NC(=O)CCC1CC(OC(=O)NCc2ccc3c(c2)OCO3)CC2(CCCC(COC(=O)NCCCN3CCCC3=O)O2)O1 (stereo partly specified) have composite z-score greater than or equal to 0.01?
Result: f

Request: Quick check: does `COc1ccc(O[C@H]2C=C[C@@H](c3ccccc3)O[C@@H]2CO)cc1` have composite z-score greater than or equal to 0.01?
Result: t

Request: Quick check: does `CC(C)=CCCC(C)=CCON=C1[C@H]2CCn3c(=O)n(-c4ccccc4)c(=O)n3[C@H]2[C@H](O)[C@@H]2O[C@H]12` have composite z-score greater than or equal to 0.01?
Result: t

Request: Quick check: does CC(=O)OC[C@H]1O[C@H](CC=NOC(C)CN2CCCc3nc(C)c(C)cc32)C=C[C@@H]1OC(C)=O (stereo partly specified) have composite z-score greater than or equal to 0.01?
Result: t

Request: Quick check: does `CC(CCN1CCCc2nc(C)c(C)cc21)=NOC[C@@H](O)COCc1ccco1` have composite z-score greater than or equal to 0.01?
Result: t

Now, please, on to the next compound.
Request: Quick check: does `Cc1cc(C)c(-c2cc([C@H](C)ON=C[C@@H](C)[C@H](OCc3ccccc3)C(C)C)on2)c(C)c1` have composite z-score greater than or equal to 0.01?
Result: f
